Values from the AptaBench aptamer set (doi:10.1093/nar/gkaf219)

# Tested on: DNA aptamer or structured DNA GGGACGACGCTAGGGGATCTTTTGGGGTTTGTATGGGCGTCGTCCC
# assay.setup: 10 mM Tris-HCl, pH 7.4
experimental.endpoint: Kd (µM)
Numbers only, in µM.

Lookup: GET /values?readout=Kd&item= CN[C@@H](C)Cc1ccccc1
Found: 2.5

----------
# Tested on: DNA aptamer or structured DNA CTTACGACGGGTGCTGTTGGTTCTAGGGGTAGGATGGCGTCGTAAG
# assay.setup: 10 mM Tris-HCl, pH 7.4
experimental.endpoint: pKd
Give bare numbers, as −log10 of the molar value.

Lookup: GET /values?readout=pKd&item= COC(=O)[C@@H]1C2CCC(C[C@@H]1OC(=O)c1ccccc1)N2C (stereo partly specified)
Found: 6.97
